These entries and their values trace back to paper PMC3193285.

# testDetails: Aqueous kinetic solubility
# Assay type: physicochemical
# cond: aqueous solution, pH 6.2
observable: solubility at 18 h (µg/mL)
Give your result in µg/mL as a bare value.

Fill blank: measured solubility at 18 h of the compound Cc1ccc(S(=O)(=O)n2c(N)nc3ccccc32)cc1 [1c] is ____.
2
